experiment: Comparative solubilities in pH 7.2 buffer at 25°; type: physicochemical; conditions: aqueous buffer; pH 7.2 phosphate buffer, 25°
recorded endpoint: solubility (µg/mL)
Kindly answer with a numeric value in µg/mL, unit omitted.

Prompt line: Query (molecule): Nc1nc2c(ncn2COC(CO)CO)c(=O)[nH]1 [Compound of Formula II, 9-(1,3-Dihydroxy-2-propoxymethyl)guanine] ; field requested: solubility
Response line: 2800

Prompt line: Moving on to Nc1nc2c(ncn2COCC(O)CO)c(=O)[nH]1 (stereo not drawn) [Compound of Formula I, 9-(2,3-Dihydroxy-1-propoxymethyl)guanine]
Response line: 3600
